Listing of recorded viability, T/C by entry.
# System: 282377-053-R-J1-PDC complex spheroid viability;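 further: spheroids exposed to compounds for seven days; 100% = DMSO vehicle control viability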
# Assay name: Anticancer human tumor 282377-053-R-J1-PDC patient-derived colon adenocarcinoma cell line growth inhibition [POLQ]
# Applied conditions: second compound 0.316 µM; first compound 0.1 µM; active compounds read low
Measure: viability, T/C (%)

{"Compound": "CCc1c2c(nc3ccc(O)cc13)-c1cc3c(c(=O)n1C2)COC(=O)[C@]3(O)CC + Cc1cccc(N(C)C(=O)C2C(O)CCN2c2nc(C)cc(C(F)(F)F)c2C#N)c1", "Assayed system": "282377-053-R-J1-PDC complex spheroid viability", "Observed": 52}
{"Compound": "COc1cc(C2c3cc4c(cc3C(OC3OC5COC(C)OC5C(O)C3O)C3COC(=O)C23)OCO4)cc(OC)c1O (stereo unspecified) + Nc1ccc(C#CCN(C(=O)Cc2ncc(C(F)(F)F)cc2C(F)(F)F)c2ccc(F)cc2)nn1", "Assayed system": "282377-053-R-J1-PDC complex spheroid viability", "Observed": 99.3}
{"Compound": "Nc1ccn(C2OC(CO)C(O)C2(F)F)c(=O)n1 (stereo unspecified) + Cc1cccc(N(C)C(=O)C2C(O)CCN2c2nc(C)cc(C(F)(F)F)c2C#N)c1", "Assayed system": "282377-053-R-J1-PDC complex spheroid viability", "Observed": 47}
{"Compound": "COc1cccc(OCCCN)c1-c1cc(Nc2cnc(C#N)cn2)n[nH]1 + Cc1cccc(N(C)C(=O)C2C(O)CCN2c2nc(C)cc(C(F)(F)F)c2C#N)c1", "Assayed system": "282377-053-R-J1-PDC complex spheroid viability", "Observed": 64.2}
{"Compound": "CC1COCCN1c1cc(C2(S(C)(=N)=O)CC2)nc(-c2ccnc3[nH]ccc23)n1 (stereo unspecified) + Nc1ccc(C#CCN(C(=O)Cc2ncc(C(F)(F)F)cc2C(F)(F)F)c2ccc(F)cc2)nn1", "Assayed system": "282377-053-R-J1-PDC complex spheroid viability", "Observed": 101}
{"Compound": "C=CC(=O)N1CCN(c2nc(=O)n(-c3c(C)ccnc3C(C)C)c3nc(-c4c(O)cccc4F)c(F)cc23)C(C)C1 (stereo unspecified) + Cc1cccc(N(C)C(=O)C2C(O)CCN2c2nc(C)cc(C(F)(F)F)c2C#N)c1", "Assayed system": "282377-053-R-J1-PDC complex spheroid viability", "Observed": 106}
{"Compound": "CC1COCCN1c1cc(C2(S(C)(=N)=O)CC2)nc(-c2ccnc3[nH]ccc23)n1 (stereo unspecified) + Cc1cccc(N(C)C(=O)C2C(O)CCN2c2nc(C)cc(C(F)(F)F)c2C#N)c1", "Assayed system": "282377-053-R-J1-PDC complex spheroid viability", "Observed": 101}
{"Compound": "CC1COCCN1c1cc(C2(O)CC3CCC(C2)O3)c2cnn(-c3ccn[nH]3)c2n1 (stereo unspecified) + Nc1ccc(C#CCN(C(=O)Cc2ncc(C(F)(F)F)cc2C(F)(F)F)c2ccc(F)cc2)nn1", "Assayed system": "282377-053-R-J1-PDC complex spheroid viability", "Observed": 84.6}
{"Compound": "C=CCn1c(=O)c2cnc(Nc3ccc(N4CCN(C)CC4)cc3)nc2n1-c1cccc(C(C)(C)O)n1 + Nc1ccc(C#CCN(C(=O)Cc2ncc(C(F)(F)F)cc2C(F)(F)F)c2ccc(F)cc2)nn1", "Assayed system": "282377-053-R-J1-PDC complex spheroid viability", "Observed": 86.1}
{"Compound": "CC1COCCN1c1cc(C2(O)CC3CCC(C2)O3)c2cnn(-c3ccn[nH]3)c2n1 (stereo unspecified) + Cc1cccc(N(C)C(=O)C2C(O)CCN2c2nc(C)cc(C(F)(F)F)c2C#N)c1", "Assayed system": "282377-053-R-J1-PDC complex spheroid viability", "Observed": 68.3}
{"Compound": "CC1COCCN1c1cc(-c2ccnn2C)c2ccnc(-c3ccn[nH]3)c2n1 (stereo unspecified) + Nc1ccc(C#CCN(C(=O)Cc2ncc(C(F)(F)F)cc2C(F)(F)F)c2ccc(F)cc2)nn1", "Assayed system": "282377-053-R-J1-PDC complex spheroid viability", "Observed": 81}
{"Compound": "C#Cc1c(F)ccc2cc(O)cc(-c3ncc4c(N5CC6CCC(C5)N6)nc(OCC56CCCN5CC(F)C6)nc4c3F)c12 (stereo unspecified) + Cc1cccc(N(C)C(=O)C2C(O)CCN2c2nc(C)cc(C(F)(F)F)c2C#N)c1", "Assayed system": "282377-053-R-J1-PDC complex spheroid viability", "Observed": 79.2}
{"Compound": "C=CC(=O)N1CCN(c2nc(=O)n(-c3c(C)ccnc3C(C)C)c3nc(-c4c(O)cccc4F)c(F)cc23)C(C)C1 (stereo unspecified) + Nc1ccc(C#CCN(C(=O)Cc2ncc(C(F)(F)F)cc2C(F)(F)F)c2ccc(F)cc2)nn1", "Assayed system": "282377-053-R-J1-PDC complex spheroid viability", "Observed": 88.6}
{"Compound": "COc1ccc([C@@H](O)c2cc(-c3ncnc4cc(N5CCOCC5)ccc34)c(F)cc2Cl)nn1 + COC1C(OC(N)=O)C(O)C(Oc2ccc3c(O)c(NC(=O)c4ccc(O)c(CC=C(C)C)c4)c(=O)oc3c2C)OC1(C)C", "Assayed system": "282377-053-R-J1-PDC complex spheroid viability", "Observed": 89.3}
{"Compound": "Nc1ccn(C2OC(CO)C(O)C2(F)F)c(=O)n1 (stereo unspecified) + COC1C(OC(N)=O)C(O)C(Oc2ccc3c(O)c(NC(=O)c4ccc(O)c(CC=C(C)C)c4)c(=O)oc3c2C)OC1(C)C", "Assayed system": "282377-053-R-J1-PDC complex spheroid viability", "Observed": 51.5}
{"Compound": "COc1ccc([C@@H](O)c2cc(-c3ncnc4cc(N5CCOCC5)ccc34)c(F)cc2Cl)nn1 + Nc1ccc(C#CCN(C(=O)Cc2ncc(C(F)(F)F)cc2C(F)(F)F)c2ccc(F)cc2)nn1", "Assayed system": "282377-053-R-J1-PDC complex spheroid viability", "Observed": 86.2}
{"Compound": "Cn1ncnc1[C@H]1c2n[nH]c(=O)c3cc(F)cc(c23)N[C@@H]1c1ccc(F)cc1 + Cc1cccc(N(C)C(=O)C2C(O)CCN2c2nc(C)cc(C(F)(F)F)c2C#N)c1", "Assayed system": "282377-053-R-J1-PDC complex spheroid viability", "Observed": 95.5}
{"Compound": "Cn1ncnc1[C@H]1c2n[nH]c(=O)c3cc(F)cc(c23)N[C@@H]1c1ccc(F)cc1 + Nc1ccc(C#CCN(C(=O)Cc2ncc(C(F)(F)F)cc2C(F)(F)F)c2ccc(F)cc2)nn1", "Assayed system": "282377-053-R-J1-PDC complex spheroid viability", "Observed": 95.2}
{"Compound": "CCc1cc2c(N3CCc4c(cc(Cn5ccnc5)cc4-c4cn(C)nc4C(F)(F)F)C3=O)cc(C)nc2c(OC)n1 + COC1C(OC(N)=O)C(O)C(Oc2ccc3c(O)c(NC(=O)c4ccc(O)c(CC=C(C)C)c4)c(=O)oc3c2C)OC1(C)C", "Assayed system": "282377-053-R-J1-PDC complex spheroid viability", "Observed": 126}
{"Compound": "CC(C)n1c(=O)n(C)c2cnc3cc(F)c(-c4ccc(OCCCN5CCCCC5)nc4)cc3c21 + COC1C(OC(N)=O)C(O)C(Oc2ccc3c(O)c(NC(=O)c4ccc(O)c(CC=C(C)C)c4)c(=O)oc3c2C)OC1(C)C", "Assayed system": "282377-053-R-J1-PDC complex spheroid viability", "Observed": 93}
{"Compound": "CC[C@@]1(O)C(=O)OCc2c1cc1n(c2=O)Cc2cc3c(CN(C)C)c(O)ccc3nc2-1 + Cc1cccc(N(C)C(=O)C2C(O)CCN2c2nc(C)cc(C(F)(F)F)c2C#N)c1", "Assayed system": "282377-053-R-J1-PDC complex spheroid viability", "Observed": 77.2}
